What Specific activity, SEQ ID NO: 3 was measured for each of the following?
system: enzyme of SEQ ID NO:3; assay: Screening of carbonyl-containing compounds with ammonia as amine source (specific activity, absorbance at 340 nm); format: biochemical, Microbacterium sp. MA1; conditions: 0.2 mM NADPH (best of NADH/NADPH); 10 mM of carbonyl-containing compound; ammonia as amine source
Marks after values point to notes of the source that are not given here.

Query: Request: Specific activity, SEQ ID NO: 3, test system enzyme of SEQ ID NO:3, entry CCC(=O)CC
Response: 192.0^b mU.mg^-1

Query: Request: Specific activity, SEQ ID NO: 3, test system enzyme of SEQ ID NO:3, entry CC1CCCC(=O)C1 (racemic) [3-methylcyclohexanone]
Response: 206.5 mU.mg^-1

Query: Request: Specific activity, SEQ ID NO: 3, test system enzyme of SEQ ID NO:3, entry O=C1C=CCCC1
Response: 37.1^b mU.mg^-1

Query: Request: Specific activity, SEQ ID NO: 3, test system enzyme of SEQ ID NO:3, entry CC1CCCC1=O (centres unmarked)
Response: 90.3^b mU.mg^-1

Query: Request: Specific activity, SEQ ID NO: 3, test system enzyme of SEQ ID NO:3, entry CC1CCC(=O)CC1
Response: 170.1^b mU.mg^-1

Query: Request: Specific activity, SEQ ID NO: 3, test system enzyme of SEQ ID NO:3, entry CC(=O)C1CCCCC1
Response: 64.0^b mU.mg^-1

Query: Request: Specific activity, SEQ ID NO: 3, test system enzyme of SEQ ID NO:3, entry CCCCC=O [drawing 146]
Response: 57.8^b mU.mg^-1

Query: Request: Specific activity, SEQ ID NO: 3, test system enzyme of SEQ ID NO:3, entry CCCC(C)=O [drawing 142]
Response: 51.2^b mU.mg^-1

Query: Request: Specific activity, SEQ ID NO: 3, test system enzyme of SEQ ID NO:3, entry CC1CC(=O)CC(C)C1 (centres unmarked)
Response: 61.6^b mU.mg^-1

Query: Request: Specific activity, SEQ ID NO: 3, test system enzyme of SEQ ID NO:3, entry O=C1CCCC1
Response: 60.6^b mU.mg^-1

Query: Request: Specific activity, SEQ ID NO: 3, test system enzyme of SEQ ID NO:3, entry CCCC(=O)CC
Response: 28.1^b mU.mg^-1

Query: Request: Specific activity, SEQ ID NO: 3, test system enzyme of SEQ ID NO:3, entry CC(=O)C(C)O (centres unmarked)
Response: 324.4^b mU.mg^-1

Query: Request: Specific activity, SEQ ID NO: 3, test system enzyme of SEQ ID NO:3, entry CC(=O)C(C)C
Response: 245.6^b mU.mg^-1

Query: Request: Specific activity, SEQ ID NO: 3, test system enzyme of SEQ ID NO:3, entry CC1CCC(=O)C1 (centres unmarked)
Response: 23.3^b mU.mg^-1

Source listed as patent US11118200B2.
